Field: polymerase ribozyme fitness (log ratio). Provide a value for each of the variants that follow.
B1: TPR 5TU (parent)
chain: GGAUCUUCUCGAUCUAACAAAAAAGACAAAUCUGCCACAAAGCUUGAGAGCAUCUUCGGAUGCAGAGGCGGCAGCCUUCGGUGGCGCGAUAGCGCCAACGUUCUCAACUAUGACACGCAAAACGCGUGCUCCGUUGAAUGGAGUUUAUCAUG

Variants of: B1
Assay: polymerase ribozyme fitness, log enrichment relative to wild type (log ratio); higher = more active; in vitro selection for triplet polymerase activity
This sample holds only a part of the variants without activity.
Answers are plain numbers.

[
  {
    "alteration": "A73G A98G U146G",
    "polymerase ribozyme fitness (log ratio)": -1.02
  }
]

Go through the list and state polymerase ribozyme fitness (log ratio) for each entry.
1. C116A A142C
2. C36G U130C
3. G50A C85A
4. C85U A150C
5. A17U C85A
6. U56G G83U C125U

1: -3.92; 2: -3.89; 3: -3.59; 4: -2.26; 5: -1.17; 6: -1.82

I have this variant here, A49G C69U , and I need its recorded polymerase ribozyme fitness (log ratio).
-1.39
